Experiment: Plasma concentration in C57BL/6 mouse at 30 mg/kg, po measured at 5 hrs post dose
Assay type: ADME, organism-based
Parameters: dose 30 mg/kg, route oral

# molecule, concentration at 5 h (nM)
rows = [
    ("CC(C)(O)c1cn(-c2ccc(-c3cccc(S(C)(=O)=O)c3)cc2)c(C(C)(C)c2ccccc2Cl)n1 [BMS-779788]", 2000),
]

###

Parameter EC50: see the listing below.
Target: Liver X receptor (Homo sapiens, UniProt Q13133+P55055)
Sequence (Q13133 whole entry): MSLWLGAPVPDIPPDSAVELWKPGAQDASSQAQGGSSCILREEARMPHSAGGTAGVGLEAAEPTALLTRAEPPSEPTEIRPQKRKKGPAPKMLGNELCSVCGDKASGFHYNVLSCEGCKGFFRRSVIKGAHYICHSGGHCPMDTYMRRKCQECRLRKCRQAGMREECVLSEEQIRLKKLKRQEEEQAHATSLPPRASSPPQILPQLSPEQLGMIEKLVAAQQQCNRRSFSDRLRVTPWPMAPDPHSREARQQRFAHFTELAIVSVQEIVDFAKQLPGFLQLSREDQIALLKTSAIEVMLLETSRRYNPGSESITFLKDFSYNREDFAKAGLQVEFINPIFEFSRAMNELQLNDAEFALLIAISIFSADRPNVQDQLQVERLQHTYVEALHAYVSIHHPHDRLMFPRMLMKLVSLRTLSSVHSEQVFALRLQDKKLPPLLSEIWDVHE
Sequence (P55055 whole entry): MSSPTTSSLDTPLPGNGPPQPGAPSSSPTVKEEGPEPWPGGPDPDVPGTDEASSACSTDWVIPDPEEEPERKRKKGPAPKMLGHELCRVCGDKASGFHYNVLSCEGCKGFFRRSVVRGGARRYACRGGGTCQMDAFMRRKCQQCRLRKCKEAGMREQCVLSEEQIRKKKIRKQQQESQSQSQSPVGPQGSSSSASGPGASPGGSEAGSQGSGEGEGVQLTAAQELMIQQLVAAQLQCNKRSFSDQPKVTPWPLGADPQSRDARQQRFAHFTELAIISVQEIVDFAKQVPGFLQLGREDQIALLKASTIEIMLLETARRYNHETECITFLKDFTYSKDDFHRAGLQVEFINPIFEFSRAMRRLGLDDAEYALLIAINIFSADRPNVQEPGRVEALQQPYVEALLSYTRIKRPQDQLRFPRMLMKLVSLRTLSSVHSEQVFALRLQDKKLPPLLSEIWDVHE
Assay: Transactivation of LXR in human whole blood assessed as induction of ABCA1 after 4 hrs by SYBR-Green quantitative PCR analysis

# compound, valueUnits, EC50
data = [
    ("CC(C)(O)c1cn(-c2ccc(-c3cccc(S(C)(=O)=O)c3)cc2)c(-c2ccccc2Cl)n1", "µM", 8.3),
    ("CC(C)(O)c1cn(-c2ccc(-c3cccc(S(C)(=O)=O)c3)cc2)c(Cc2ccccc2Cl)n1", "µM", 3.2),
    ("CC(C)(O)c1cn(-c2ccc(-c3cccc(S(C)(=O)=O)c3)cc2)c(C(C)(C)c2ccccc2Cl)n1 [BMS-779788]", "µM", 1.2),
    ("CC(C)(O)c1cn(-c2ccc(-c3cccc(S(C)(=O)=O)c3)cc2)c(Cc2ccccc2C(F)(F)F)n1", "µM", 3.1),
    ("CS(=O)(=O)c1cccc(-c2ccc(-c3cc(C(F)(F)F)nn3-c3ccccc3Cl)cc2)c1", "µM", 0.48),
    ("CC(C)(O)c1cn(-c2ccc(-c3cccc(S(C)(=O)=O)c3)cc2)c(-c2c(Cl)cccc2Cl)n1", "µM", 7),
]

###

Assay: Plasma concentration in C57BL/6 mouse at 3 mg/kg, po measured at 5 hrs post dose
Type: ADME, organism-based
Design: dose 3 mg/kg, route oral

# smilesRepr, concentration at 5 h / nM
data = [
    ("CC(C)(O)c1cn(-c2ccc(-c3cccc(S(C)(=O)=O)c3)cc2)c(C(C)(C)c2ccccc2Cl)n1", 50),
]

###

Biological target: Oxysterols receptor LXR-beta (Homo sapiens)
Sequence (P55055 whole entry): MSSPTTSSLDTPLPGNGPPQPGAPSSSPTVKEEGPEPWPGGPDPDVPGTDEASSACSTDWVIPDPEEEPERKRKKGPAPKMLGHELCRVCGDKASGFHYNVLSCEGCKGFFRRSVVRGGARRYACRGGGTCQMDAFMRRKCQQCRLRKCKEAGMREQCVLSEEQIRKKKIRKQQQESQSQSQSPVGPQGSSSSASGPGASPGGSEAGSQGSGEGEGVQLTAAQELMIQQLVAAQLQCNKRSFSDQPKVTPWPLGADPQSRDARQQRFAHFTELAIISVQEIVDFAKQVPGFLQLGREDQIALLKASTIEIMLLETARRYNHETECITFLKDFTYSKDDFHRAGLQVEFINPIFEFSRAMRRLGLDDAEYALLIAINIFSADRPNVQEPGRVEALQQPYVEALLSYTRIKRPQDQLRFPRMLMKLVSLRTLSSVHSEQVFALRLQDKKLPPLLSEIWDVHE
Assay: Transactivation of LXRbeta (unknown origin) expressed in CV1 cells by luciferase reporter gene assay
Type: cell-based, CV-1
Just so you know, the groups by EC50 go like this: low range (below 60 nM), mid range (60 nM to below 200 nM), high range (200 nM or more)

# compound, class
data = [
    ("CC(C)(O)c1cn(-c2ccc(-c3cccc(S(C)(=O)=O)c3)cc2)c(-c2ccccc2Cl)n1", "high range"),
    ("CC(C)(O)c1cn(-c2ccc(-c3cccc(S(C)(=O)=O)c3)cc2)c(-c2c(Cl)cccc2Cl)n1", "high range"),
    ("CS(=O)(=O)c1cccc(-c2ccc(-c3cc(C(F)(F)F)nn3Cc3ccc(F)cc3F)s2)c1", "low range"),
    ("COC(=O)c1cc(-c2ccc(-c3cccc(S(C)(=O)=O)c3)s2)n(-c2ccccc2Cl)n1", "mid range"),
    ("N#Cc1c(C(F)(F)F)cc(-c2ccc(Oc3ccccc3)cc2)n(Cc2ccc(F)cc2F)c1=O", "low range"),
    ("CS(=O)(=O)c1cccc(-c2ccc(-c3cc(C(F)(F)F)nn3-c3ccccc3Cl)s2)c1", "mid range"),
    ("CS(=O)(=O)c1cccc(-c2ccc(-c3cc(C(F)(F)F)c(C#N)c(=O)n3Cc3ccc(F)cc3F)s2)c1", "low range"),
    ("CC(C)(O)c1cc(-c2ccc(-c3cccc(S(C)(=O)=O)c3)s2)n(-c2ccccc2Cl)n1", "high range"),
    ("CS(=O)(=O)c1cccc(-c2cccc(-c3cc(C(F)(F)F)nn3-c3ccccc3Cl)c2)c1", "high range"),
    ("CC(C)(O)c1cn(-c2ccc(-c3cccc(S(C)(=O)=O)c3)cc2)c(Cc2ccccc2Cl)n1", "mid range"),
    ("Cc1cc(CC(=O)O)ccc1-c1ccc(-c2cc(C(F)(F)F)c(C#N)c(=O)n2Cc2ccc(F)cc2F)s1", "high range"),
    ("CS(=O)(=O)c1cccc(-c2ccc(-c3cc(C(F)(F)F)nn3-c3ccccc3Cl)cc2)c1", "low range"),
    ("CC(C)(O)c1cn(-c2ccc(-c3cccc(S(C)(=O)=O)c3)cc2)c(C(C)(C)c2ccccc2Cl)n1 [BMS-779788]", "high range"),
    ("CC(C)(O)c1cn(-c2ccc(-c3cccc(S(C)(=O)=O)c3)cc2)c(Cc2ccccc2C(F)(F)F)n1", "mid range"),
    ("CS(=O)(=O)c1cccc(-c2ccc(-c3cc(C(F)(F)F)nn3-c3ccccc3C(F)(F)F)s2)c1", "mid range"),
]

###

Parameter concentration at 24 h: see the listing below.
Experiment: Drug uptake in mouse liver at 30 mg/kg, po measured at 24 hrs post dose
Format: ADME, organism-based
Set-up: dose 30 mg/kg, route oral
Conditions: read-out: Drug uptake
resultType: concentration at 24 h

# smilesRepr, result
measured = [
    ("CS(=O)(=O)c1cccc(-c2cccc(-c3cc(C(F)(F)F)nn3-c3ccccc3Cl)c2)c1", "1 µM"),
    ("CC(C)(O)c1cn(-c2ccc(-c3cccc(S(C)(=O)=O)c3)cc2)c(-c2ccccc2Cl)n1", "13.2 µM"),
    ("CC(C)(O)c1cn(-c2ccc(-c3cccc(S(C)(=O)=O)c3)cc2)c(Cc2ccccc2C(F)(F)F)n1", "0.2 µM"),
    ("CC(C)(O)c1cn(-c2ccc(-c3cccc(S(C)(=O)=O)c3)cc2)c(Cc2ccccc2Cl)n1", "1.5 µM"),
    ("CC(C)(O)c1cn(-c2ccc(-c3cccc(S(C)(=O)=O)c3)cc2)c(-c2c(Cl)cccc2Cl)n1", "4.4 µM"),
    ("CS(=O)(=O)c1cccc(-c2ccc(-c3cc(C(F)(F)F)nn3-c3ccccc3Cl)cc2)c1", "7.8 µM"),
    ("CC(C)(O)c1cn(-c2ccc(-c3cccc(S(C)(=O)=O)c3)cc2)c(C(C)(C)c2ccccc2Cl)n1", "< 0.05 µM"),
    ("CS(=O)(=O)c1cccc(-c2ccc(-n3cc(C(F)(F)F)nc3-c3ccccc3Cl)cc2)c1", "32 µM"),
]
